# ASSAY_COMMENT: Solubility of analogs in pH 7.2 phosphate buffer
# Format: physicochemical
# TEST_CONDITIONS: aqueous buffer; pH 7.2 phosphate buffer with DMSO, 2-3 h room temperature, absorbance at 310 nm, mean of 3
Assign Fulfilled whenever solubility does not fall below 30 µM; assign Not fulfilled whenever it does.

Take a look at these entries with their results.
Please indicate if the recorded solubility for CCCn1c(=O)c2[nH]c(-c3ccc(OCC(=O)NCCNC(=S)Nc4cc(CO)cc(N=C=S)c4)cc3)nc2n(CCC)c1=O meets or exceeds 30 µM.
Not fulfilled

API: above_or_equal(metric=solubility, cutoff=30 µM) for item CCCn1c(=O)c2[nH]c(-c3ccc(OCC(=O)NCCNC(=S)Nc4cc(N=C=S)cc(C(=O)NCCNC(C)=O)c4)cc3)nc2n(CCC)c1=O
Fulfilled

Decide: is the reported value of solubility for CCCn1c(=O)c2[nH]c(-c3ccc(OCC(=O)NCCNC(=S)Nc4cc(N=C=S)cc(C(=O)NCCN(C)C)c4)cc3)nc2n(CCC)c1=O equal to or greater than 30 µM?
Not fulfilled

Exam item: decide whether the reported solubility for CCCn1c(=O)c2[nH]c(-c3ccc(OCC(=O)NCCNC(=S)Nc4cccc(N=C=S)c4)cc3)nc2n(CCC)c1=O is at least 30 µM.
Fulfilled

Hi, just wondering whether CCCn1c(=O)c2[nH]c(-c3ccc(OCC(=O)NCCNC(=S)Nc4cc(N=C=S)cc(C(N)=O)c4)cc3)nc2n(CCC)c1=O shows solubility of 30 µM or higher.
Fulfilled

I'd appreciate it if you could say whether CCCn1c(=O)c2[nH]c(-c3ccc(OCC(=O)NCCNC(=S)Nc4cc(N=C=S)cc(NC(=S)NCCNC(C)=O)c4)cc3)nc2n(CCC)c1=O has solubility at least equal to 30 µM.
Fulfilled

Is it the case that CCCn1c(=O)c2[nH]c(-c3ccc(OCC(=O)NCCNC(=S)Nc4cc(N=C=S)cc(C(=O)OCC)c4)cc3)nc2n(CCC)c1=O has solubility reaching or exceeding 30 µM?
Not fulfilled

Please look at the following compound next.
Threshold query (solubility >= 30 µM) on CCCn1c(=O)c2[nH]c(-c3ccc(OCC(=O)NCCNC(=S)Nc4cccc(N=C=S)n4)cc3)nc2n(CCC)c1=O
Not fulfilled

* * *

Form: system (A1-adenosine receptors (Rattus norvegicus, UniProt P25099)), quantity (pKi), values below.
Here pKi is given on a logarithmic scale as minus log10 of the concentration in mol/L.

Use these answered entries as a reference point.
I have this compound here, CCCn1c(=O)c2[nH]c(-c3ccc(OCC(=O)NCCNC(=S)Nc4cc(N=C=S)cc(NC(=S)NCCNC(C)=O)c4)cc3)nc2n(CCC)c1=O , and I need its recorded pKi.
7.24

// returns reported pKi for input CCCn1c(=O)c2[nH]c(-c3ccc(OCC(=O)NCCNC(=S)Nc4cc(N=C=S)cc(C(=O)OCC)c4)cc3)nc2n(CCC)c1=O
7.38

Any idea what pKi was measured for CCCn1c(=O)c2[nH]c(-c3ccc(OCC(=O)NCCNC(=S)Nc4cc(N=C=S)cc(C(=O)NCCNC(=O)CBr)c4)cc3)nc2n(CCC)c1=O ?
7.80

State the recorded pKi for this entry: CCCn1c(=O)c2[nH]c(-c3ccc(OCC(=O)NCCNC(=S)Nc4cc(N=C=S)cc(NC(=S)NCCNC(=O)c5ccc(N=[N+]=[N-])cc5O)c4)cc3)nc2n(CCC)c1=O
7.60

// lookup pKi for CCCn1c(=O)c2[nH]c(-c3ccc(OCC(=O)NCCNC(=S)Nc4cc(CO)cc(N=C=S)c4)cc3)nc2n(CCC)c1=O
7.87

---
Using the record for CCCn1c(=O)c2[nH]c(-c3ccc(OCC(=O)NCCNC(=S)Nc4cc(N=C=S)cc(C(N)=O)c4)cc3)nc2n(CCC)c1=O , report its pKi.
8.02
